# Tested System: NRP-1 (neuropilin-1), binding of bt-VEGF165 (Homo sapiens, UniProt O14786)
# Sequence (O14786 22-923, species assumed): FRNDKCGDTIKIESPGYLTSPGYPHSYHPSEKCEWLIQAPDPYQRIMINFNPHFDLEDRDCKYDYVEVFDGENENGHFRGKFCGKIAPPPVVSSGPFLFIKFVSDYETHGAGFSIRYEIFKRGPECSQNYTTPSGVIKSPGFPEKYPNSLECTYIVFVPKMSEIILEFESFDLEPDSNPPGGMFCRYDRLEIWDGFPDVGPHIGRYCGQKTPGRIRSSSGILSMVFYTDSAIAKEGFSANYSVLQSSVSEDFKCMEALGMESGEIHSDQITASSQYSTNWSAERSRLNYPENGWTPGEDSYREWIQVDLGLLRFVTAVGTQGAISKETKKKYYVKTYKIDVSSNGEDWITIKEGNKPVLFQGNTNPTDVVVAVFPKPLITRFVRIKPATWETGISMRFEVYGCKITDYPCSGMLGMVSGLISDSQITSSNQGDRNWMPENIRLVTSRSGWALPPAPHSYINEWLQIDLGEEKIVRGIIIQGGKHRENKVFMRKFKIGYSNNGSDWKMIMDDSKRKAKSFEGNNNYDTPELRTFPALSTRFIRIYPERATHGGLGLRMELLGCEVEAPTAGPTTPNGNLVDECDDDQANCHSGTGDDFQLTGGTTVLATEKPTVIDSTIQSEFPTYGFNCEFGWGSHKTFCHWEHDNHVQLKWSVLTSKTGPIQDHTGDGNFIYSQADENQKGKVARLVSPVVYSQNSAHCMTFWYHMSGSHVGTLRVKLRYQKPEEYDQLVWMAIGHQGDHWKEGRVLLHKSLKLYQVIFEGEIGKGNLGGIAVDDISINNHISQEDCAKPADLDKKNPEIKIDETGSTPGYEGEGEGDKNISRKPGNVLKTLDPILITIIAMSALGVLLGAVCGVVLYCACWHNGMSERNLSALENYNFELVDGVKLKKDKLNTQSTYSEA
# Assay Procedure: ELISA: inhibition of bt-VEGF165 binding to NRP-1
# Condition Set: 10 µM; mean ± S.D.
Readout Kind: Inhibition of bt-VEGF165 Binding to NRP-1 [10 µM]

Query: Look up Inhibition of bt-VEGF165 Binding to NRP-1 [10 µM] for this substance: Har-GlyΨ[Trl]GlyΨ[Trl]GlyΨ[Trl]Arg [Compound 13]
Response: 34.8 ± 1.5%

Query: Record request: Inhibition of bt-VEGF165 Binding to NRP-1 [10 µM] value, item Har-Ala-GlyΨ[Trl]GlyΨ[Trl]Arg [Compound 21]
Response: 27.8 ± 2.1%

Query: May I ask what Inhibition of bt-VEGF165 Binding to NRP-1 [10 µM] has been recorded for Har-Gly-GlyΨ[Trl]GlyΨ[Trl]Arg [Compound 22] ?
Response: 35.7 ± 1.6%

Query: I am curious: what Inhibition of bt-VEGF165 Binding to NRP-1 [10 µM] value has been reported for Har-6Ahx-GlyΨ[Trl]GlyΨ[Trl]Arg [Compound 19] ?
Response: 30.5 ± 0.6%

Query: Which Inhibition of bt-VEGF165 Binding to NRP-1 [10 µM] reading was recorded for the substance Har-5Ava-GlyΨ[Trl]GlyΨ[Trl]Arg [Compound 20] ?
Response: 29.7 ± 1.8%

* * *

# Assay Procedure: in vitro
# Condition Set: mouse, cell viability (Muse Cell Analyser), single replicates
Readout Kind: viability at 48 h, 10 µM (%)
Lab book: enter the figure in %, no units written.

Query: // viability at 48 h, 10 µM lookup, key: N=C(N)NCCCC[C@H](N)C(=O)NCCCC[C@@H](N)C(=O)NCc1cn(Cc2cn([C@@H](CCCNC(=N)N)C(=O)O)nn2)nn1 [Compound 4, D-Lys(Har)-GlyΨ[Trl]GlyΨ[Trl]Arg]
Response: 99.4

* * *

# Assay Procedure: Proteolytic stability by incubation in human plasma at 37 °C (HPLC-MS)
# Type: in vitro ADME
# Condition Set: human, pooled human plasma, 40 h, read-out: Relative (peak area average vs 0 h)
Readout Kind: remaining at 40 h, 1.1 µmol/mL (%)
Lab book: enter the figure in %, no units written.

Query: For N=C(N)NCCCC[C@H](N)C(=O)NCCCC[C@@H](N)C(=O)NCc1cn(Cc2cn([C@@H](CCCNC(=N)N)C(=O)O)nn2)nn1 [Compound 4, D-Lys(Har)-GlyΨ[Trl]GlyΨ[Trl]Arg] , what is its reported remaining at 40 h, 1.1 µmol/mL?
Response: 93

Query: Reported remaining at 40 h, 1.1 µmol/mL, molecule N=C(N)NCCCC[C@H](N)C(=O)NCCCC[C@H](N)C(=O)NCc1cn(Cc2cn([C@@H](CCCNC(=N)N)C(=O)O)nn2)nn1 [Compound 3, Lys(Har)-GlyΨ[Trl]GlyΨ[Trl]Arg] : ____
Response: 73.4

* * *

# Assay Procedure: in vitro
# Condition Set: mouse, cell viability (Muse Cell Analyser), single replicates
Readout Kind: viability at 48 h, 50 µM

Query: What does the data say about its viability at 48 h, 50 µM? Entry: N=C(N)NCCCC[C@H](N)C(=O)NCCCC[C@@H](N)C(=O)NCc1cn(Cc2cn([C@@H](CCCNC(=N)N)C(=O)O)nn2)nn1 [Compound 4, D-Lys(Har)-GlyΨ[Trl]GlyΨ[Trl]Arg]
Response: 99.7%
